target: CaLsb1; assay: SPOT peptide array binding signal intensity (averaged, normalized) (arbitrary units (background-subtracted, floor 0; scale differs between SH3 domains)); higher = stronger binding of the SH3 domain to the peptide
Parameter threshold = 1. Response is t when SPOT peptide array binding signal intensity meets or exceeds it, else f.

# binder, class-label
rows = [
    ("IFLRISINFPLNYPN", "t"),
    ("FYNRTAFQLPGDARV", "t"),
    ("PAPPPPPRASRPTPN", "f"),
    ("KRRTSLFPWLHKPGI", "f"),
    ("VRVKKRPLIRPLNSS", "t"),
    ("LPPPPPPPPPPPLPQ", "f"),
    ("LEFRAILFIPKRAPF", "t"),
    ("KLSRGRYGLPLSSRP", "t"),
    ("KWVRRPKLMTPLTFS", "t"),
    ("LLRRTIPKRPFYHVL", "f"),
    ("VYTRTAFQIPGDDKI", "t"),
    ("NVLRKILEIPLHSFS", "t"),
    ("STKKPRPPVKSKPKH", "f"),
    ("EVTPKVPERPSRRKT", "f"),
    ("WTQRRGPLVVYAEDN", "t"),
    ("RPKRRAPPPVPKKPS", "f"),
    ("EREKALPPIPFTTTL", "f"),
    ("GKKVRPLLVLLLSRA", "f"),
    ("VTHRLRISIPGITGR", "t"),
    ("DLFKPLPEPPTELGR", "f"),
    ("DLPLPDLPPEPPTEL", "f"),
    ("NLPKRKPPKLQGPFS", "f"),
    ("IAPIPMPKPNPTHIS", "f"),
    ("RKNRAPPQRPRFNRE", "t"),
    ("VSKLRSPNTPRRLRK", "f"),
    ("KTRLRPAFIQQLWSS", "f"),
    ("HGKRRAPLLLAKLDV", "f"),
    ("KRNRLKILLPFLEQS", "t"),
]
